# Experimental Target: GLP-1R (Homo sapiens, UniProt P43220)
# Sequence (P43220 24-463): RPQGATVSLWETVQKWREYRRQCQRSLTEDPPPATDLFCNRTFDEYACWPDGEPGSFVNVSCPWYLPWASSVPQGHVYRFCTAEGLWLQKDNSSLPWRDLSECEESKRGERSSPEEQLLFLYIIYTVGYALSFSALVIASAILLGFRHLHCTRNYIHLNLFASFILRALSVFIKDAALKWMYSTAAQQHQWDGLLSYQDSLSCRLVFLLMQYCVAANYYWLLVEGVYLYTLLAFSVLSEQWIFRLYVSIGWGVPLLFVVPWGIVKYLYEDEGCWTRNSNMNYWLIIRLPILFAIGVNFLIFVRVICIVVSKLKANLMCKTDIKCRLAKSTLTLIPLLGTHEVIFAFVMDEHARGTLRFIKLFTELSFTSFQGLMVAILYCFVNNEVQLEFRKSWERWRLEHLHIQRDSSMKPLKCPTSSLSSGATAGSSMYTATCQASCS
# Sequence (P01275 100-127 partner limits assumed): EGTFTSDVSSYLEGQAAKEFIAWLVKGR
# Method Summary: EC20 GLP-1(9-36) PAM cAMP assay: dose response of compound in the presence of fixed concentration of GLP-1(9-36)
# Condition Label: compound dose response with fixed GLP-1(9-36); GLP-1R CRE-bla CHO-K1 cells, cAMP
Property Measured: EC50 (nM)
Form entry: value (nM) — number only.

INSERT INTO measurements (compound, experimental_target, property_measured, numeric_readout) VALUES
  ('COc1cccc(OC)c1CC(=O)Nc1ccc(C(=O)N(CC(=O)O)Cc2ccc(-c3nc(-c4ccc(-c5ccc(C)cc5)cc4)no3)cc2)cc1 [Compound 458]', 'GLP-1R (Homo sapiens, UniProt P43220)', 'EC50', 200),
  ('CCCCCCCCCOc1ccc(C(=O)Oc2ccc(CN(CC(=O)O)C(=O)c3ccc(NC(=O)Cc4ccc(OC)cc4)cc3)cc2)cc1 [Compound 16]', 'GLP-1R (Homo sapiens, UniProt P43220)', 'EC50', 1200);

As a next step, examine the compound that follows.
Task: Item under review: COc1ccc(CC(=O)Nc2ccc(C(=O)N(CC(=O)O)Cc3ccc(-c4nc(-c5ccc(C)cc5)no4)cc3)cc2)c(C(F)(F)F)c1 [Compound 363] . Reported EC50?
Output: 3200
